// values below are MIC; system is Klebsiella pneumoniae ATCC 10031
Give just the numeric value; µg/mL need not be written.

### Prompt Requested read-out MIC, target or system Klebsiella pneumoniae ATCC 10031, entry CCn1cc(C(=O)O)c(=O)c2cnc(N3CCNCC3)nc21 [Pipemidic acid, reference compound]
### Response 2

### Prompt Requested read-out MIC, target or system Klebsiella pneumoniae ATCC 10031, entry CCn1cc(C(=O)O)c(=O)c2ccc(-n3cccc3)nc21 [Example 3]
### Response 4

### Prompt Requested read-out MIC, target or system Klebsiella pneumoniae ATCC 10031, entry CCn1cc(C(=O)O)c(=O)c2cc(F)c(-n3cccc3)cc21 [Example 2]
### Response 0.5

### Prompt Requested read-out MIC, target or system Klebsiella pneumoniae ATCC 10031, entry CCn1cc(C(=O)O)c(=O)c2ccc(-n3cccc3)cc21 [Example 1]
### Response 1

### Prompt Requested read-out MIC, target or system Klebsiella pneumoniae ATCC 10031, entry CCn1cc(C(=O)O)c(=O)c2cc(F)c(-n3cccc3)nc21 [Example 4]
### Response 1
